Origin of measurements: ChEMBL document CHEMBL5055617

- Assayed target: Mu-type opioid receptor (Homo sapiens, UniProt P35372)
- Sequence (P35372 whole entry): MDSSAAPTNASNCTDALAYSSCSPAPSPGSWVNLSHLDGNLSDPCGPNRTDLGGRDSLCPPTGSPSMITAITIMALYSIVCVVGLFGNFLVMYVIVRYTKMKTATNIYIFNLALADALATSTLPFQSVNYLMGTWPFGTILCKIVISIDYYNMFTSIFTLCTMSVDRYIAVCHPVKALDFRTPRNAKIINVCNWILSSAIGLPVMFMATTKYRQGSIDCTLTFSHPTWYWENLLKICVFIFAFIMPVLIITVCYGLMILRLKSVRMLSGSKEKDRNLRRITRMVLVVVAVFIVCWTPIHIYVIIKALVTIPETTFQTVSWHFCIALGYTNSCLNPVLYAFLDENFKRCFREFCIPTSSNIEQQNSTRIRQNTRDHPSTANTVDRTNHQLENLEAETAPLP
- Protocol notes: Displacement of [3H]-DAMGO from mu opioid receptor (unknown origin) expressed in CHO cells incubated for 90 mins in presence of peptidase inhibitors
Square brackets hold non-standard residues; d marks the D form. Peptide text beside a SMILES is read from it.
Recorded endpoint: Ki (nM)
The reply should be a number in nM, with the unit left off.

Solved entries:
C=CCOc1ccc(C[C@H](NC(C)=O)C(=O)N[C@@H](Cc2cccc(OCC=C)c2)C(=O)N[C@@H](Cc2ccccc2)C(=O)N[C@@H](CCCNC(=N)N)C(=O)N[C@@H](CC(C)C)C(=O)N[C@@H](CCCNC(=N)N)C(=O)N[C@@H](CCCNC(=N)N)C(=O)N[C@H](C)C(=O)N[C@@H](CCCNC(=N)N)C(=O)N2CCC[C@H]2C(=O)N[C@@H](CCCCN)C(N)=O)cc1    490
CC(=O)N[C@@H](Cc1ccccc1)C(=O)N[C@@H](Cc1ccccc1)C(=O)N[C@@H](Cc1ccccc1)C(=O)N[C@@H](CCCNC(=N)N)C(=O)N[C@@H](CC(C)C)C(=O)N[C@@H](CCCNC(=N)N)C(=O)N[C@@H](CCCNC(=N)N)C(=O)N[C@H](C)C(=O)N[C@@H](CCCNC(=N)N)C(=O)N1CCC[C@H]1C(=O)N[C@@H](CCCCN)C(N)=O (Ac-FFFRLRR[dA]RPK-NH2)    1740

Could you now look at the following compound, please?
Inquiry: Form field: reported Ki of CC(=O)N[C@H]1Cc2cccc(c2)OC/C=C/COc2ccc(cc2)C[C@@H](C(=O)N[C@@H](Cc2ccccc2)C(=O)N[C@@H](CCCNC(=N)N)C(=O)N[C@@H](CC(C)C)C(=O)N[C@@H](CCCNC(=N)N)C(=O)N[C@@H](CCCNC(=N)N)C(=O)N[C@H](C)C(=O)N[C@@H](CCCNC(=N)N)C(=O)N2CCC[C@H]2C(=O)N[C@@H](CCCCN)C(N)=O)NC1=O
Reply text: 657

* * *

- Assayed target: Mu-type opioid receptor (Homo sapiens)
- Protocol notes: Displacement of [3H]-DAMGO from mu opioid receptor (unknown origin) expressed in CHO cells incubated for 90 mins in presence of peptidase inhibitors
- Assay type: cell-based
Recorded endpoint: pKi
Remember the convention: pKi equals -log10 of concentration in molar.

Solved entries:
C=CCOc1ccc(C[C@H](NC(=O)[C@H](Cc2ccccc2)NC(C)=O)C(=O)N[C@@H](Cc2cccc(OCC=C)c2)C(=O)N[C@@H](CCCNC(=N)N)C(=O)N[C@@H](CC(C)C)C(=O)N[C@@H](CCCNC(=N)N)C(=O)N[C@@H](CCCNC(=N)N)C(=O)N[C@H](C)C(=O)N[C@@H](CCCNC(=N)N)C(=O)N2CCC[C@H]2C(=O)N[C@@H](CCCCN)C(N)=O)cc1    5.86
CC(=O)N[C@@H](Cc1ccccc1)C(=O)N[C@H]1Cc2cccc(c2)OC/C=C\COc2cccc(c2)C[C@@H](C(=O)N[C@@H](CCCNC(=N)N)C(=O)N[C@@H](CC(C)C)C(=O)N[C@@H](CCCNC(=N)N)C(=O)N[C@@H](CCCNC(=N)N)C(=O)N[C@H](C)C(=O)N[C@@H](CCCNC(=N)N)C(=O)N2CCC[C@H]2C(=O)N[C@@H](CCCCN)C(N)=O)NC1=O    6.08
CC(=O)N[C@H]1Cc2ccc(cc2)OC/C=C/COc2cccc(c2)C[C@@H](C(=O)N[C@@H](Cc2ccccc2)C(=O)N[C@@H](CCCNC(=N)N)C(=O)N[C@@H](CC(C)C)C(=O)N[C@@H](CCCNC(=N)N)C(=O)N[C@@H](CCCNC(=N)N)C(=O)N[C@H](C)C(=O)N[C@@H](CCCNC(=N)N)C(=O)N2CCC[C@H]2C(=O)N[C@@H](CCCCN)C(N)=O)NC1=O    6.30
C=CCOc1ccc(C[C@H](NC(C)=O)C(=O)N[C@@H](Cc2ccc(OCC=C)cc2)C(=O)N[C@@H](Cc2ccccc2)C(=O)N[C@@H](CCCNC(=N)N)C(=O)N[C@@H](CC(C)C)C(=O)N[C@@H](CCCNC(=N)N)C(=O)N[C@@H](CCCNC(=N)N)C(=O)N[C@H](C)C(=O)N[C@@H](CCCNC(=N)N)C(=O)N2CCC[C@H]2C(=O)N[C@@H](CCCCN)C(N)=O)cc1    6.66

Inquiry: Form field: reported pKi of CC(=O)N[C@H]1Cc2cccc(c2)OC/C=C/COc2cccc(c2)C[C@@H](C(=O)N[C@@H](Cc2ccccc2)C(=O)N[C@@H](CCCNC(=N)N)C(=O)N[C@@H](CC(C)C)C(=O)N[C@@H](CCCNC(=N)N)C(=O)N[C@@H](CCCNC(=N)N)C(=O)N[C@H](C)C(=O)N[C@@H](CCCNC(=N)N)C(=O)N2CCC[C@H]2C(=O)N[C@@H](CCCCN)C(N)=O)NC1=O
Reply text: 5.79
